Provide the reported Ki of each item.
Target: C-CBL (residues 46-435) (Homo sapiens)
Construct: Purified CBL-B (residues 36-427) and C-CBL (residues 46-435) proteins from baculovirus-infected insect cells; made in house; host or cells: baculovirus-infected insect cells
Test: Ligand Displacement Assay (LDA), HTRF competitive binding against BODIPY-labeled fluorescent tracer, C-CBL
Conditions: geometric mean of the number of tests, read-out: C-CBL Ki (nM) GMean
Answers are plain numbers, in nM.

| molecule | Ki [nM] |
| --- | --- |
| Cn1cnnc1[C@@H](c1cccc(-c2n[nH]c3c(CN[C@@H]4CCOC4)nc(C(F)(F)F)cc23)c1)C1CCC1 | 218 |
| CC(CN)c1nc(C(F)(F)F)cc2c(-c3cccc([C@H](c4nncn4C)C4CCC4)c3)n[nH]c12 (single isomer, unassigned) [Example K14] | 195 |

Please turn your attention to the following entry.
The reported Ki of the molecule CC[C@H](c1cccc(-c2n[nH]c3c([C@@H](C)NC[C@H](C)O)nc(C(F)(F)F)cc23)c1)c1nncn1C (single isomer, unassigned) was 4.5
